Please respond with reported log10 of IC50 for every item in the list.
Molecular target: Protein kinase C epsilon type (Homo sapiens)
Sequence (Q02156 whole entry): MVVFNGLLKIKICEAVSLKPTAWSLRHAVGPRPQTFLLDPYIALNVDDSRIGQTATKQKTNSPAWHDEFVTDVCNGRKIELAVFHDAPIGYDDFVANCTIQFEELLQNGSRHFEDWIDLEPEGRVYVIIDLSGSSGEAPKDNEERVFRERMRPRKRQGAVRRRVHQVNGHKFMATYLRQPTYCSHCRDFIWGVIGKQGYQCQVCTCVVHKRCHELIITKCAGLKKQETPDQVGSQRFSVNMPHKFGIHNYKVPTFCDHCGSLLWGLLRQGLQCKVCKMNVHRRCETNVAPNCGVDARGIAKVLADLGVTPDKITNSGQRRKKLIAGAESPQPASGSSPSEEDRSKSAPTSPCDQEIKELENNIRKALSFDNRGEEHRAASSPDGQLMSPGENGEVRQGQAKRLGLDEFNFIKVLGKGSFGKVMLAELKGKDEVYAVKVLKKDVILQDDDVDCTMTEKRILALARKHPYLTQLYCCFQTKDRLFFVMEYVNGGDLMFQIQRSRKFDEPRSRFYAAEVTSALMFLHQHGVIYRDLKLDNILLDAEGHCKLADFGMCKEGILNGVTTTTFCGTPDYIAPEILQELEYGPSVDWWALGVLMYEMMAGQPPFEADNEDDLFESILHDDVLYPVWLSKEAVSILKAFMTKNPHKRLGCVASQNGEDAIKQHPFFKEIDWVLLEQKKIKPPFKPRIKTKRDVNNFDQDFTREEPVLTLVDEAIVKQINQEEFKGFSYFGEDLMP
Test: Inhibition of recombinant human PKCepsilon assessed as [33P]-ATP incorporation into tridecapeptide substrate after 60 mins by scintillation proximity assay
Annotation: log10 of IC50, µM basis.

Endpoint output: log10 of IC50 of OCCNc1nc(-c2ccncc2)cc2cnccc12 . Value?
-1.09

# query: log10 of IC50 of entry CC(C)(N)CNc1nc(-c2ccncc2Cl)cc2cnccc12
-1.33

Endpoint output: log10 of IC50 of c1cc(-c2cc3cnccc3c(N3CCCNCC3)n2)ccn1 . Value?
-2.15

Look up log10 of IC50: NC1CCCN(c2nc(-c3ccncc3)cc3cnccc23)C1 (stereo not given)
-2.10

What log10 of IC50 value was documented for this compound, NCCNc1nc(-c2ccncc2)cc2ncccc12 ?
-0.03

Can you share its log10 of IC50? I mean this compound: CNCCNc1nc(-c2ccncc2)cc2cnccc12
-1.10

Record request: log10 of IC50 value, item CC(C)(N)CNc1nc(-c2ccncc2F)cc2cnccc12
-1.21

GET /values?readout=log10 of IC50&item= c1cc(-c2cc3cnccc3c(N3CCNCC3)n2)ccn1
-2.10

* * *

Assay: AUC (infinity) in Lewis rat at 10 mg/kg, po
Type: ADME, organism-based
Set-up: time infinity, dose 10 mg/kg, route oral
Conditions: plasma
Result Type: AUC(0-inf) (ng·h/mL)
Reply with just the number (in ng·h/mL).

Param item = C[C@H](N)CNc1nc(-c2ccncc2)cc2cnccc12 ; retrieve measured AUC(0-inf).
712

* * *

Molecular target: Protein kinase C eta type (Homo sapiens, UniProt P24723)
Sequence (P24723 whole entry): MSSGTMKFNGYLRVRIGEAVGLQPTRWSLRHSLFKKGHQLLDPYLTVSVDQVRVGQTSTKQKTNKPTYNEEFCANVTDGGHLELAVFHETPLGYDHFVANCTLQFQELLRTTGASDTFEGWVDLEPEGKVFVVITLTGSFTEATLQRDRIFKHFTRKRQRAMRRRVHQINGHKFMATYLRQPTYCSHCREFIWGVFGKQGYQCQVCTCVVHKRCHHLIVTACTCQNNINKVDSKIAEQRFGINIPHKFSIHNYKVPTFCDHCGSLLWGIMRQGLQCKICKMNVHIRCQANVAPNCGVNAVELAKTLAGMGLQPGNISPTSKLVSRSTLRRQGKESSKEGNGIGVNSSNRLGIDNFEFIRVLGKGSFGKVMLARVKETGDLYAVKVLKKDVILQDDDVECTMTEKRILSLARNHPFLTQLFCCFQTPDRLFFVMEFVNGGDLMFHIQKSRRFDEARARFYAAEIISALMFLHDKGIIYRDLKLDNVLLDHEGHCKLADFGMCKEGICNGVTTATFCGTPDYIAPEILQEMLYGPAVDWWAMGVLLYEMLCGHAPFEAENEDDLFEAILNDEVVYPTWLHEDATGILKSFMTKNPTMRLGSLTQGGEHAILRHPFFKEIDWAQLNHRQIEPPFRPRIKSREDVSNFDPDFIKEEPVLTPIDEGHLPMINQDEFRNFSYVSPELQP
Assay: Inhibition of recombinant human PKCeta assessed as [33P]-ATP incorporation into tridecapeptide substrate after 60 mins by scintillation proximity assay
What IC50 was measured for each of the following?
Numeric answer only, unit nM assumed.

What measured IC50 is associated with NCCCNc1nc(-c2ccncc2)cc2cnccc12 on Protein kinase C eta type (Homo sapiens, UniProt P24723)?
10

GET /values?readout=IC50&system=Protein kinase C eta type (Homo sapiens, UniProt P24723)&item= NC1CCCN(c2nc(-c3ccncc3)cc3cnccc23)C1 (stereo not drawn)
13

Please state recorded IC50 (tested on Protein kinase C eta type (Homo sapiens, UniProt P24723)) of CN(CCN)c1nc(-c2ccncc2)cc2cnccc12
34
